Assay: Cmax in lung transplant recipient at 6 mg/kg, iv twice a day administered immediately post transplant as 2 hr infusion
Type: ADME, organism-based
Set-up: dose 6 mg/kg, route intravenous
Details: human, in vivo
Endpoint Label: Cmax (ng/mL)
Answer format: numeric, ng/mL implied, no suffix.

// lookup Cmax for C[C@@H](c1ncncc1F)[C@](O)(Cn1cncn1)c1ccc(F)cc1F 3600

----------
Experiment: Tmax in lung transplant recipient at 6 mg/kg, iv twice a day administered immediately post transplant as 2 hr infusion followed by 200 mg, po bid for 3 months by HPLC analysis
Assay type: ADME, organism-based
Set-up: dose 6 mg/kg, route oral
Conditions: human, in vivo
Endpoint Label: Tmax (h)
Answer format: numeric, h implied, no suffix.

// lookup Tmax for C[C@@H](c1ncncc1F)[C@](O)(Cn1cncn1)c1ccc(F)cc1F [VORICONAZOLE] 1.9

----------
Assay: Cmax in lung transplant recipient at 6 mg/kg, iv twice a day administered immediately post transplant as 2 hr infusion followed by 200 mg, po bid for 3 months by HPLC analysis
Format: ADME, organism-based
Parameters: dose 6 mg/kg, route oral
Settings: human, in vivo
Endpoint Label: Cmax

// lookup Cmax for C[C@@H](c1ncncc1F)[C@](O)(Cn1cncn1)c1ccc(F)cc1F 5900 ng/mL
